assayProcedure: xn = mol fraction of the nth substance listed, in the solute-free solvent
measurementContext: 288.15 K; x2 = 0.3698
measure: solubility (g/100 g solution)

{"columns": ["compound", "solubility (g/100 g solution)"],
 "data": [
  ["O=[N+]([O-])c1cc[nH]n1 + CCO + O", 1.2]
]}

I = COC(=O)C1=C(C)NC(C)=C(C(=O)OCC(C)C)C1c1ccccc1[N+](=O)[O-] (centres undefined) + CCO + O
II = CC(=O)Nc1ccc(OC(=O)c2ccccc2OC(C)=O)cc1 + CCO + O
III = CS(=O)(=O)c1ccc(C(O)C(CF)NC(=O)C(Cl)Cl)cc1 (centres undefined) + CCO + O
Input line: // sort entries: solubility (g/100 g solution), high to low Your answer should be the labels, listed in the requested order.
Output line: I, III, II
